The measured values listed here are drawn from ChEMBL document CHEMBL1201862.

Tested on: RPMI-8226
Experiment: NCI tumour cell line growth inhibition, 48 h
Activity calls are given as the source filed them. Cut-off read from the data, not from the text of the source: active = GI50 up to about 1.1 µM and inactive = higher.
I would appreciate it if you answered using one of these outcomes: active, inactive

Nc1nc(Cl)cc(NCC2(CO)CC(Cc3ccccc3)C2)n1 (configuration not stated)	inactive

Now for another entry.
// query Could you check what this test reported for COc1cc2c(cc1OC)C13CC[N+]4(C)CC5=CCOC6CC(=O)N2C1C6C5CC34[O-] (configuration not stated) ?
// result inactive

###

Test system: OVCAR-4
Assay: NCI tumour cell line growth inhibition, 48 h
Calls of active or inactive are those of the source. Rule as the data show it: active = GI50 up to about 1.1 µM and inactive = higher.
I would appreciate it if you answered using one of these outcomes: active, inactive

Observe how each entry below is paired with its result.
Cc1ccc(Cn2c(C)nc3c2C(=O)c2ccccc2C3=O)cc1	inactive
C=CCc1ccc(Oc2cc(CC=C)c3c(c2O)O[C@@H](CO)[C@H]3c2ccc(O)c(-c3cc(CC=C)ccc3O)c2)cc1	inactive
O=CC[C@H]1C(=O)C[C@@H]2CCC[C@@H]21	inactive
COc1ccccc1-n1c(C)nc2ccccc2c1=O	inactive
O=C(O)c1nc2ccc(C(F)(F)F)cc2nc1NCc1ccc(F)cc1	inactive
CC1=C2C(=O)c3ccccc3C(=O)[C@H]2[C@H]2CCO[C@H]2O1	inactive

// query Could you check what this test reported for `COc1ccc(-c2c3c(cc4cc5c(cc24)OCO5)C(=O)OC3)cc1OC` ?
// result inactive
